# System: HEK-293T
# EXPERIMENT NOTES: Incucyte cell viability with HEK293T; note: unitless GR value; below 1 slowed growth and below 0 cell loss
# Assay type: toxicity, cell-based
# EXPERIMENTAL SETUP: human, 18 h, 10 µM, compound concentration 10 uM, replicate number 1
QUANTITY NAME: Growth Rate
Note: the reply should be a number with no unit written.

So what's the measured Growth Rate for this one? "Cn1ncnc1COc1nn2c(-c3cc(F)ccc3F)nnc2cc1C(C)(C)C" 0.42

And the next one, "O=C1NC(=NCc2cccs2)SC1=Cc1ccc2ncccc2c1" ? 0.84

And the next one, "O=C1CCCc2[nH]c(-c3ccnc(NCC4CC4)c3)c(Nc3ccccc3)c21" ? 0.94

And the next one, "CCCOc1cnc(CN/C=C2\C(=O)NC(=O)c3ccc(I)cc32)cc1O" ? -0.63

And the next one, "CC(=O)NCC(=O)N1[C@@H]2CC[C@H]1c1ccc(Nc3ncc(C(F)(F)F)c(NC4CCC4)n3)cc12" ? -0.72
